// data source = BindingDB's records for doi:10.1021/jm0001976

target: Histone deacetylase (Eimeria tenella); test: Tested for Histone deacetylase enzyme inhibition assay using Eimeria tenella extract
The following compounds are shown together with reported IC50 values.
Answer format: numeric, nM implied, no suffix.

CCCn1cc([C@@H]2NC(=O)[C@H](CCCCCC(=O)CC)NC(=O)[C@H]3CCCCN3C(=O)[C@H]([C@@H](C)CC)NC2=O)c(=O)c2ccccc21: 28
CCC(=O)CCCCC[C@@H]1NC(=O)[C@H]2CCCCN2C(=O)[C@H]([C@@H](C)CC)NC(=O)[C@H](c2cn(C)c3ccccc3c2=O)NC1=O: 9
CCC(=O)CCCCC[C@@H]1NC(=O)[C@H]2CCCCN2C(=O)[C@H]([C@@H](C)CC)NC(=O)[C@H](c2cn(CC)c3ccccc3c2=O)NC1=O: 11

From here, focus on the item given below.
State IC50 on Histone deacetylase (Eimeria tenella). Entry: CCC(=O)CCCCC[C@@H]1NC(=O)[C@H]2CCCCN2C(=O)[C@H]([C@@H](C)CC)NC(=O)[C@H](c2cn(OC)c3ccccc3c2=O)NC1=O 3.8
